measured target: CfEcR-DEF mutant A110N (Choristoneura fumiferana, UniProt O77255, A393N)
Sequence (O77255 entry or part of it A393N, one chain of several): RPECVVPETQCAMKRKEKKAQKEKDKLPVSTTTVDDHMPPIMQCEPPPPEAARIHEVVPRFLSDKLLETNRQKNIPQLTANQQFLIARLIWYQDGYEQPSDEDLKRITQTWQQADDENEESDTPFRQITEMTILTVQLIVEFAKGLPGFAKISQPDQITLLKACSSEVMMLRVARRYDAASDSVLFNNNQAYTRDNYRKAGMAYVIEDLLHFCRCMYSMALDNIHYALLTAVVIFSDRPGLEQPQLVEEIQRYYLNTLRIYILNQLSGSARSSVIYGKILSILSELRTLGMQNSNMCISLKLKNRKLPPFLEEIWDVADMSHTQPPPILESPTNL
method: cell-based
experimental setup: mutant A110N; read-out: EC50
pEC50: −log10 of the molar value.
assay endpoint: pEC50

compound: CC(C)CC[C@@H](O)[C@](C)(O)[C@H]1CC[C@@]2(O)C3=CC(=O)[C@@H]4C[C@@H](O)[C@@H](O)C[C@]4(C)[C@H]3CC[C@]12C
pEC50: < 4.48

Shifting focus to the compound that follows.
Look up pEC50: CC(C)(O)CC[C@@H](O)[C@](C)(O)[C@H]1CC[C@@]2(O)C3=CC(=O)[C@@H]4C[C@@H](O)[C@@H](O)C[C@]4(C)[C@H]3CC[C@]12C [20E, 20-hydroxyecdysone] < 4.48

* * *

measured target: CfEcR-DEF mutant V96L (Choristoneura fumiferana, UniProt O77255, V379L)
Sequence (O77255 entry or part of it V379L): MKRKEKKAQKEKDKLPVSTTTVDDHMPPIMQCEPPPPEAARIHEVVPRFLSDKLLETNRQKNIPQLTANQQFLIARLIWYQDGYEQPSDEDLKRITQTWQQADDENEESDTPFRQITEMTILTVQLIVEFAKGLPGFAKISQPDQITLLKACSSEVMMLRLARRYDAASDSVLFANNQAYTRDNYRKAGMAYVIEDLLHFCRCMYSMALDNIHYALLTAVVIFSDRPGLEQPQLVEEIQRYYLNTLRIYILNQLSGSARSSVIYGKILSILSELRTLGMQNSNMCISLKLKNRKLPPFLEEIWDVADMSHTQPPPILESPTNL
Sequence (P28702 299-449, further chain): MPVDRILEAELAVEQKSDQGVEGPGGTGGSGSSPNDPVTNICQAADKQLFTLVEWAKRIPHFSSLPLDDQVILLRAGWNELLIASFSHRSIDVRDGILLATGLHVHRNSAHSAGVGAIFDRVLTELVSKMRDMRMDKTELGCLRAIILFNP
method: cell-based
experimental setup: mutant V96L; read-out: EC50
Experimental: This construct was prepared in the same way as in switch 1.1 above except wild-type CfEcR-DEF was replaced with mutant CfEcR-DEF comprising a ligand binding domain comprising a substitution mutation selected from Table 1 below. […] Reporter Assays: Cells were harvested 40 hours after adding ligands. […] Luciferase activity was measured using Dual-Luciferase reporter assay system from Promega Corporation following the manufacturer's instructions. […]
assay endpoint: pEC50
Please note pEC50 is a logarithmic value: minus log10 of concentration in mol/L. Answer with that number alone.

Look up pEC50: CC(C)CC[C@@H](O)[C@](C)(O)[C@H]1CC[C@@]2(O)C3=CC(=O)[C@@H]4C[C@@H](O)[C@@H](O)C[C@]4(C)[C@H]3CC[C@]12C 5.13

* * *

measured target: CfEcR-DEF mutant M125I (Choristoneura fumiferana, UniProt O77255, M408I)
Sequence (O77255 entry or part of it M408I): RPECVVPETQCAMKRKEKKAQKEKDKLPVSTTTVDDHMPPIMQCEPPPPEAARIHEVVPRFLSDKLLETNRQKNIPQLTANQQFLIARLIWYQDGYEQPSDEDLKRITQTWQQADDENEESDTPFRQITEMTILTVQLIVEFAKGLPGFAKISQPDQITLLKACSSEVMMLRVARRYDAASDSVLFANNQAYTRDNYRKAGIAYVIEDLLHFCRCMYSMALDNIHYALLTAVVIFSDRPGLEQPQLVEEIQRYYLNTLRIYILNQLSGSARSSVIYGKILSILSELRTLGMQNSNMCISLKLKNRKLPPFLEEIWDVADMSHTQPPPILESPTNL
Sequence (P28702 299-449, further chain): as the sequence (P28702 299-449, further chain) above
method: GAL4-driven luciferase reporter assay in NIH3T3 cells
Below, each entry is listed alongside its reported EC50.
Only the number, expressed in µM, is required.

molecule: CCCCC(N(NC(=O)c1ccc(CC)cc1)C(=O)c1cc(C)cc(C)c1)C(C)(C)C (stereo not drawn) [RG-115840]
measured target: CfEcR-DEF mutant M125I (Choristoneura fumiferana, UniProt O77255, M408I)
EC50 [µM]: 3.02

Look up EC50: CCc1c(OC)cccc1C(=O)NN(C(=O)c1cc(C)cc(C)c1)C(C)(C)C [RG-102240] 1.36

* * *

measured target: CfEcR-DEF mutant W238Y (Choristoneura fumiferana, UniProt O77255, W521Y)
method: cell-based
pEC50: −log10 of the molar value.
Below, each entry is listed alongside its reported pEC50.

smiles data: CCc1cccc(C(=O)NN(C(=O)c2cc(C)cc(C)c2)C(C)(C)C)c1C
pEC50: < 4.48
--
smiles data: CCc1c(OC)cccc1C(=O)NN(C(=O)c1cc(C)cc(C)c1)C(C)(C)C
pEC50: ~4.89

Look up pEC50: Cc1cc(C)cc(C(=O)N(NC(=O)c2cccc(C(C)C)c2C)C(C)(C)C)c1 < 4.48

* * *

Below, each entry is listed alongside its reported pEC50.
measured target: CfEcR-DEF mutant T52L (Choristoneura fumiferana, UniProt O77255, T335L)
Sequence (P28702 298-449): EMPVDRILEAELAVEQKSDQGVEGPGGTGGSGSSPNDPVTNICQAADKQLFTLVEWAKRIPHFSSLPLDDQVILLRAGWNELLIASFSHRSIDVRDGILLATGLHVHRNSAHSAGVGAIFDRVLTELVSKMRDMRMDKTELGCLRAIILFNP
Sequence (O77255 entry or part of it T335L): as the sequence (O77255 entry or part of it M408I) above, with T129L, I202M counted along it
method: cell-based
Please note pEC50 is a logarithmic value: minus log10 of concentration in mol/L. Answer with that number alone.

smiles data: Cc1cc(C)cc(C(=O)N(NC(=O)c2cccc(C(C)C)c2C)C(C)(C)C)c1
assay endpoint: pEC50
reported: 6.48

Shifting focus to the compound that follows.
Look up pEC50: CCc1cccc(C(=O)NN(C(=O)c2cc(C)cc(C)c2)C(C)(C)C)c1C 6.68
